From: ChEMBL document CHEMBL4609983

Read-out record for E3 SUMO-protein ligase CBX4 (Homo sapiens): pKd
Non-standard residues stand in square brackets, D forms with d. Residues, ends and D or L forms follow the SMILES beside them. *: point of attachment. X1 = O=C(O)c1cc(NC(=S)*)ccc1-c1c2ccc(=O)cc-2oc2cc(O)ccc12; Lys(Me3) = C[N+](C)(C)CCCC[C@H](N)C(=O)O; Benzoyl(4-Br) = O=C(c1ccc(Br)cc1)*; Gly(cPent) = N[C@H](C(=O)O)C1CCCC1; Abu = CC[C@H](N)C(=O)O; βAla = NCCC(=O)O
// pKd: -log10(molar conc.)

Below, each entry is followed by its recorded pKd result.
>  <COMPOUND>
CC[C@H](NC(=O)[C@H](Cc1ccccc1)NC(=O)c1ccc(Br)cc1)C(=O)N[C@@H](Cc1ccccc1)C(=O)N[C@@H](CCCC[N+](C)(C)C)C(=O)N[C@@H](CO)C(=O)N[C@@H](CCC(=O)O)C(=O)N[C@@H](CCCCNC(=S)Nc1ccc(-c2c3ccc(=O)cc-3oc3cc(O)ccc23)c(C(=O)O)c1)C(N)=O ({Benzoyl(4-Br)}-F[Abu]F[Lys(Me3)]SEK(X1)-NH2)

>  <pKd>
6.15

$$$$
>  <COMPOUND>
CC(C)C[C@H](NC(=O)[C@H](C)NC(=O)[C@H](Cc1ccccc1)NC(=O)[C@H](Cc1ccccc1)NC(=O)CCNC(=S)Nc1ccc(-c2c3ccc(=O)cc-3oc3cc(O)ccc23)c(C(=O)O)c1)C(=O)N[C@@H](CCCC[N+](C)(C)C)C(=O)N[C@@H](CO)C(N)=O ({X1-βAla}-FFAL[Lys(Me3)]S-NH2)

>  <pKd>
5.77

$$$$
>  <COMPOUND>
CC(=O)N[C@@H](Cc1ccccc1)C(=O)N[C@@H](Cc1ccccc1)C(=O)N[C@@H](C)C(=O)N[C@@H](CC(C)C)C(=O)N[C@@H](CCCC[N+](C)(C)C)C(=O)N[C@@H](CO)C(=O)N[C@@H](CCC(=O)O)C(=O)N[C@@H](CCCCNC(=S)Nc1ccc(-c2c3ccc(=O)cc-3oc3cc(O)ccc23)c(C(=O)O)c1)C(N)=O (Ac-FFAL[Lys(Me3)]SEK(X1)-NH2)

>  <pKd>
4.82

$$$$

With those in mind, consider the next compound.
Query for E3 SUMO-protein ligase CBX4 (Homo sapiens): what pKd does the record show for CC[C@H](NC(=O)[C@H](Cc1ccccc1)NC(=O)c1ccc(Br)cc1)C(=O)N[C@H](C(=O)N[C@@H](CCCC[N+](C)(C)C)C(=O)N[C@@H](CO)C(=O)N[C@@H](CCC(=O)O)C(=O)N[C@@H](CCCCNC(=S)Nc1ccc(-c2c3ccc(=O)cc-3oc3cc(O)ccc23)c(C(=O)O)c1)C(N)=O)C1CCCC1 ({Benzoyl(4-Br)}-F[Abu][Gly(cPent)][Lys(Me3)]SEK(X1)-NH2) ?
6.22

* * *

# SYSTEM TESTED: Chromobox protein homolog 7 (Homo sapiens)
# Sequence (O95931 whole entry): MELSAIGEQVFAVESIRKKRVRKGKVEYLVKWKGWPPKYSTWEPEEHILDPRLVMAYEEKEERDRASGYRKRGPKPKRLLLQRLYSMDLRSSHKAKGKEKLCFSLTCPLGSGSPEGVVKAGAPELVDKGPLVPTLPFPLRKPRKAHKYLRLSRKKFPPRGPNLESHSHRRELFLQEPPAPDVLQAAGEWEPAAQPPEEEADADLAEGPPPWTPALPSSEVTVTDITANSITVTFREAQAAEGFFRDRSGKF
Non-standard residues stand in square brackets, D forms with d. Residues, ends and D or L forms follow the SMILES beside them. *: point of attachment. X1 = O=C(O)c1cc(NC(=S)*)ccc1-c1c2ccc(=O)cc-2oc2cc(O)ccc12; Lys(Me3) = C[N+](C)(C)CCCC[C@H](N)C(=O)O; Benzoyl(4-Br) = O=C(c1ccc(Br)cc1)*; Abu = CC[C@H](N)C(=O)O
MEASURE NAME: Kd (nM)
Numeric only. Scale: nM

I'd like to know its Kd. The compound in question is CC[C@H](NC(=O)[C@H](Cc1ccccc1)NC(=O)c1ccc(Br)cc1)C(=O)N[C@@H](Cc1ccccc1)C(=O)N[C@@H](CCCC[N+](C)(C)C)C(=O)N[C@@H](CO)C(=O)N[C@@H](CCC(=O)O)C(=O)N[C@@H](CCCCNC(=S)Nc1ccc(-c2c3ccc(=O)cc-3oc3cc(O)ccc23)c(C(=O)O)c1)C(N)=O ({Benzoyl(4-Br)}-F[Abu]F[Lys(Me3)]SEK(X1)-NH2)
300
